target: IKKβ (Homo sapiens); assay: in-house DELFIA kinase assay, IKKβ
Sequence (O14920 whole entry): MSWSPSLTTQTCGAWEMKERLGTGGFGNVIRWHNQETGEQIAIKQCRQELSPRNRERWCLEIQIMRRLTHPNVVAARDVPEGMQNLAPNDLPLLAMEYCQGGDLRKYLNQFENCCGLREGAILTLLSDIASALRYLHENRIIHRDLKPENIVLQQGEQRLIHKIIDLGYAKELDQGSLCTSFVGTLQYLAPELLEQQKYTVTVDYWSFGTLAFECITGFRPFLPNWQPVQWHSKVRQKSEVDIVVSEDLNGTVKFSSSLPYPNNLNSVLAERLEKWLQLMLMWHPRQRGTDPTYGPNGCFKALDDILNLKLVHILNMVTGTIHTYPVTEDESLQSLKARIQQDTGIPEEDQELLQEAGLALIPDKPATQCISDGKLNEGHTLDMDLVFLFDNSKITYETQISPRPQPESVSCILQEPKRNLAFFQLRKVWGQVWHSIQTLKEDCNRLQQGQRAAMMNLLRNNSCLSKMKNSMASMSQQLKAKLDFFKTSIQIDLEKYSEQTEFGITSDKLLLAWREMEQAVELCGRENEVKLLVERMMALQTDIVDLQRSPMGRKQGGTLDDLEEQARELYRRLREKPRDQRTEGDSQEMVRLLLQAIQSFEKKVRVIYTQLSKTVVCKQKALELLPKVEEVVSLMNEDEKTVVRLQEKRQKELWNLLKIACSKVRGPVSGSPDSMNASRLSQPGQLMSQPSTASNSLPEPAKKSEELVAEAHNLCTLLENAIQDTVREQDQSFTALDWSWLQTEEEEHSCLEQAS
assayMetric: log10 Ki (log10 of the value in nM)
Kindly note that the scale is log10 and the underlying Ki is in nM.

Recorded results for 6 molecules are shown here.
molecule: Nc1n[nH]c2ccc(-c3ccnc4[nH]c(-c5cccc(OCC6CCOCC6)c5)cc34)cc12 [5x SU1335]
log10 Ki: 2.09
--
molecule: Nc1n[nH]c2ccc(-c3ccnc4[nH]c(-c5ccnc(SCc6ccccc6)c5)cc34)cc12 [6h SU1615]
log10 Ki: 3.07
--
molecule: NC(=O)c1cccc(-c2cc3c(-c4ccc5[nH]nc(N)c5c4)ccnc3[nH]2)c1 [5i SU1294]
log10 Ki: 2.20
--
molecule: Nc1n[nH]c2ccc(-c3ccnc4[nH]c(-c5ccccc5O)cc34)cc12 [5a SU1354]
log10 Ki: 1.62
--
molecule: Nc1n[nH]c2ccc(-c3ccnc4[nH]c(-c5cccc(OCc6ccccn6)c5)cc34)cc12 [5w SU1324]
log10 Ki: 2.60
--
molecule: Nc1n[nH]c2ccc(-c3ccnc4[nH]c(-c5ccnc(OCc6ccccc6)c5)cc34)cc12 [6g SU1349]
log10 Ki: 3.53

# input # lookup: log10 Ki of Nc1n[nH]c2ccc(-c3ccnc4[nH]c(-c5ccc(OCc6ccccc6)nc5)cc34)cc12 [6d SU1350]
# output 1.34

# input And CC(C)COc1cccc(-c2cc3c(-c4ccc5[nH]nc(N)c5c4)ccnc3[nH]2)c1 [5o SU1367] ?
# output 2.66

# input And Nc1n[nH]c2ccc(-c3ccnc4[nH]c(-c5cc(OCc6ccccc6)ccn5)cc34)cc12 [6j SU1602] ?
# output 3.36

# input And Nc1n[nH]c2ccc(-c3ccnc4[nH]c(-c5cc(F)nc(SCc6ccccc6)c5)cc34)cc12 [6i SU1380] ?
# output 3.48
